- Tested on: CP256
- Experiment Notes: qHTS profiling for inhibitors of Plasmodium falciparum proliferation (AID 504749);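 also: 0% = DMSO vehicle and full inhibition = artemisinin control; nearly all actives have a fitted effect of over 60% in size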
- Study Conditions: P. falciparum in erythrocytes, SYBR Green DNA, 72 h; series mostly up to 28.7 µM
Results filed as inconclusive are left out. The source made the active and inactive calls. Calls follow the shape of the dose curve; as a rule, active = well fitted inhibition curve with a large enough effect; inconclusive = small, poorly fitted or top-dose-only effect; inactive = flat fitted curve, though single readings scatter.
Give one outcome, nothing more. List: yes (1) = active, no (0) = inactive

| Compound | Cat |
| --- | --- |
| C/C=C/C=C/C(=O)O | no (0) |
| c1ccc(-n2cnnn2)cc1 | no (0) |
| CNC(=O)OCc1cccc(COC(=O)NC)n1 | no (0) |
| O=C1CCC(=O)N1CO | no (0) |

Consider the record given below.
Asked: Kindly provide the recorded test outcome for the following compound: `Nc1ccc(N=Nc2ccccc2)c(N)n1`
Given back: no (0)

* * *

- System: CP217
- Experiment Notes: qHTS profiling for inhibitors of Plasmodium falciparum proliferation (AID 504749);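 also: 0% = DMSO vehicle and full inhibition = artemisinin control; nearly all actives have a fitted effect of over 60% in size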
- Study Conditions: P. falciparum in erythrocytes, SYBR Green DNA, 72 h; series mostly up to 28.7 µM
Inconclusive results are not listed. Active and inactive are the calls of the source. The call rests on the fitted dose curve; in most records, active means well fitted inhibition curve with a large enough effect; inconclusive means small, poorly fitted or top-dose-only effect; inactive means flat fitted curve, though single readings scatter.
Experimental Endpoint: outcome

| Molecule | Assayed Target | Experimental Endpoint | Result |
| --- | --- | --- | --- |
| CN[C@@H]1[C@H](O[C@H]2[C@H](O[C@H]3[C@H](O)[C@@H](O)[C@H](N=C(N)N)[C@@H](O)[C@@H]3N=C(N)N)O[C@@H](C)[C@]2(O)C=O)O[C@@H](CO)[C@H](O)[C@H]1O | CP217 | outcome | inactive |
| CC(C)(C)CC(C)(C)c1ccc(OCCO)cc1 | CP217 | outcome | inactive |
| O=C1CCC(c2ccccc2)(C2CCN(Cc3ccccc3)CC2)C(=O)N1 (centres undefined) | CP217 | outcome | inactive |
| CC1(C)S[C@@H]2[C@H](NC(=O)C3(N)CCCCC3)C(=O)N2[C@H]1C(=O)O | CP217 | outcome | inactive |

* * *

- Experiment Notes: qHTS profiling for inhibitors of Plasmodium falciparum proliferation (AID 504749);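 also: 0% = DMSO vehicle and full inhibition = artemisinin control; nearly all actives have a fitted effect of over 60% in size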
- Study Conditions: P. falciparum in erythrocytes, SYBR Green DNA, 72 h; at 28.7 µM (top of the series); parasite line B
Inconclusive results are not listed.
Experimental Endpoint: activity, negative = inhibition (%)
Answers are plain numbers, in %.

Each compound below has a recorded value; state its activity, negative = inhibition.
1. CC(C)(C)CC(C)(C)c1cc(Cc2cc(C(C)(C)CC(C)(C)C)cc(-n3nc4ccccc4n3)c2O)c(O)c(-n2nc3ccccc3n2)c1
2. Cc1ncc(C[n+]2csc(CCOP(=O)(O)OP(=O)(O)O)c2C)c(N)n1

Given back:
1: 2.7; 2: 5.83

Each compound below has a recorded value; state its activity, negative = inhibition.
1. C=CCOc1ccc(CC(=O)O)cc1Cl
2. FC(F)(F)C(F)(F)C(F)(F)C(F)(F)C(F)(F)C(F)(F)F
3. NCC[C@H](O)C(=O)N[C@@H]1C[C@H](N)[C@@H](O[C@H]2O[C@H](CN)[C@@H](O)[C@H](O)[C@H]2O)[C@H](O)[C@H]1O[C@H]1O[C@H](CO)[C@@H](O)[C@H](N)[C@H]1O
4. Nc1nccs1
5. O=[N+]([O-])c1c(Cl)cccc1-c1c[nH]cc1Cl

Given back:
[1.68, 2.03, 0.715, 11.4, -18.4]
